# System: SN12C
# assay.summary: NCI tumour cell line growth inhibition, 48 h
Activity calls are given as the source filed them. Rule as the data show it: active = GI50 up to about 1.1 µM and inactive = higher.
Use one of these outcomes when replying: 1 (yes) = active, 0 (no) = inactive

Some entries whose results are on file:
compound	class
C[C@]12CC(c3ccccc3O1)C(C(N)=O)C(=O)N2 (stereo not given in full)	0 (no)
CC1=NN(C(=O)Cc2ccccc2)C(=O)/C1=C\c1ccco1	0 (no)
CC(=O)NNc1nc(C)c(C(/C=C/c2ccc(NC(C)=O)cc2)=N/NS(=O)(=O)c2ccc(C)cc2)s1	0 (no)
COC(=O)CCC(NC(=S)N/N=C(\C)c1cnc2ccccc2n1)C(=O)OC (stereo not given)	0 (no)
O=c1c2ccccc2nnn1-c1n[nH]c2ccccc12	0 (no)

**Q:** Field: outcome | Entry: CC1C(c2ccc(N(C)C)cc2)c2cc3c(cc2OC1N1CCCC1)OCO3 (stereo not given)
**A:** 0 (no)

**Q:** Field: outcome | Entry: "CCCCCCCCCCCCCCCCCCC1=C(O)C(=O)C=C(OC)C1=O"
**A:** 0 (no)

**Q:** Field: outcome | Entry: "O=[N+]([O-])c1ccccc1S(=O)(=O)c1ccccc1[N+](=O)[O-]"
**A:** 0 (no)

**Q:** Field: outcome | Entry: COc1ccc2oc3c4c2c1CCC4CCC3=O (stereo not given)
**A:** 0 (no)

**Q:** Field: outcome | Entry: CCCC[S+]([O-])CCC(N)C(=O)O (stereo not given)
**A:** 0 (no)

Data origin, for the record: ChEMBL document CHEMBL1201862
